- studySystem: CaLsb4
- assayExplanation: SPOT peptide array binding signal intensity (averaged, normalized) (arbitrary units (background-subtracted, floor 0; scale differs between SH3 domains)); higher = stronger binding of the SH3 domain to the peptide
Entry class follows SPOT peptide array binding signal intensity: I: < 60; II: ≥ 60 and < 4000; III: ≥ 4000

Data request: Any idea which band NPTKSPPPPPSPSTM is in?
Data returned: I

Data request: Ok, now GATNNAPTLPKRKNP
Data returned: III

Data request: Ok, now KRNRLKILLPFLEQS
Data returned: I

Data request: Ok, now QQEQNTPPLPPKPKS
Data returned: II

Data request: Ok, now GRLRPKRIAPWHLIQ
Data returned: II

Data request: Ok, now LPMNIQPDLPPRKIM
Data returned: III

Data request: Ok, now PALPSLPPPPLLNVD
Data returned: I

Data request: Ok, now MFLISPPASPPPEFD
Data returned: I

Data request: Ok, now GERSRPLVISILSSA
Data returned: I

Data request: Ok, now FYHRPAPKPPVTKKV
Data returned: I

Data request: Ok, now SRYRRPLTLLLLKPF
Data returned: I

Data request: Ok, now EEEEEHPPLPARRKS
Data returned: III

Data request: Ok, now LKVTPGRRAPTISKI
Data returned: I
